Values from paper PMC10872342

- ASSAY: Half-life of peptide 9S1R in serum
- Type: in vitro ADME
- SETUP CONDITIONS: bovine, fetal bovine serum; peptide spiked into FBS, 37 °C, exposure 30 s, 5, 30, 60, 90 min; 75% ice cold acetonitrile precipitation; HPLC-QTOF MS, log2 EIC peak area vs time; read-out: half-life (t1/2) in fetal bovine serum
Ends that are not written are not given here.
OBSERVATION TYPE: half-life (min)
Write the value in min as a bare number.

Reported half-life ( RRRRRWCMNW [9S1R] ) = 8.7
